system: wheat (Triticum aestivum); assay: Test A pre-/postemergence plant response; format: in vivo; conditions: Postemergence, 500 g ai/ha; visual injury, 0 to 100 scale (0 no effect, 100 complete control), approx. ten days
Measured Attribute: Wheat plant response rating
Lab note: record just the number, no unit beside it.

Known Wheat plant response rating results, listed for orientation:
[
  {
    "Molecule": "Cc1ccc(C)c(-n2c(-c3ccccc3)ncc(C(=O)c3cnoc3C3CC3)c2=O)c1",
    "Assayed Target": "wheat (Triticum aestivum)",
    "Endpoint Value": 0
  },
  {
    "Molecule": "O=C(C1=C(O)C2CCC(C2)C1=O)c1cnc(-c2ccsc2)n(CC2CCCO2)c1=O (centres unmarked)",
    "Assayed Target": "wheat (Triticum aestivum)",
    "Endpoint Value": 20
  },
  {
    "Molecule": "COCCn1c(-c2cccc(C)c2)ncc(C(=O)C2=C(O)C3CCC(C3)C2=O)c1=O (centres unmarked)",
    "Assayed Target": "wheat (Triticum aestivum)",
    "Endpoint Value": 60
  },
  {
    "Molecule": "O=C1CCCC(O)=C1C(=O)c1cnc(-c2cccc(C(F)(F)F)c2)n(C2CCCCC2)c1=O",
    "Assayed Target": "wheat (Triticum aestivum)",
    "Endpoint Value": 0
  }
]

The reported value for O=C1CCCC(O)=C1C(=O)c1cnc(-c2cccc(F)c2)n(CCC(F)(F)F)c1=O in terms of Wheat plant response rating is 10

The reported value for O=C1CCCC(O)=C1C(=O)c1cnc(-c2ccccc2)n(C2CCSCC2)c1=O in terms of Wheat plant response rating is 20

The reported value for Cc1cc(-n2c(-c3cccc(F)c3)ncc(C(=O)C3=C(O)CCCC3=O)c2=O)ccc1F in terms of Wheat plant response rating is 50

The reported value for O=C1CCCC(O)=C1C(=O)c1cnc(-c2cccs2)n(C2CCCCC2)c1=O in terms of Wheat plant response rating is 0

---

Parameter Plant response rating, Blackgrass: see the listing below.
Test system: blackgrass (Alopecurus myosuroides)
Assay: Test B pre-/postemergence plant response
Format: in vivo
Settings: Postemergence, 125 g ai/ha; visual rating after 13 to 15 days, scale 0 (no effect) to 100 (complete control)
From the text: […] Treated plants and controls were maintained in a greenhouse for 13 to 15 days, after which time all treated plants were visually evaluated and compared to controls. […]
Lab note: record just the number, no unit beside it.

The reported value for CC(C)n1c(-c2ccccc2)ncc(C(=O)C2=C(O)CCCC2=O)c1=O [Compound 95] in terms of Plant response rating, Blackgrass is 0

The reported value for CCCCc1ncc(C(=O)C2=C(O)CCCC2=O)c(=O)n1-c1ccc(C)cc1 [Compound 67] in terms of Plant response rating, Blackgrass is 5

The reported value for O=C1CCCC(O)=C1C(=O)c1cnc(-c2ccccc2Br)n(-c2ccccc2)c1=O [Compound 71] in terms of Plant response rating, Blackgrass is 0

The reported value for Cc1ccccc1-n1c(-c2cccc(Cl)c2)ncc(C(=O)C2=C(O)CCCC2=O)c1=O [Compound 36] in terms of Plant response rating, Blackgrass is 15

The reported value for CC(C)CC(=O)OC1=C(C(=O)c2cnc(-c3ccccc3)n(-c3ccccc3)c2=O)C(=O)CCC1 [Compound 83] in terms of Plant response rating, Blackgrass is 0

The reported value for Cc1cc(C)cc(-n2c(-c3ccccc3)ncc(C(=O)C3=C(O)CCCC3=O)c2=O)c1 [Compound 33] in terms of Plant response rating, Blackgrass is 30

The reported value for Cc1c(Cl)cccc1-n1c(-c2ccccc2)ncc(C(=O)C2=C(O)CCCC2=O)c1=O [Compound 40] in terms of Plant response rating, Blackgrass is 10

The reported value for O=C1CCCC(O)=C1C(=O)c1cnc(-c2ccccc2)n(-c2cccc(Br)c2)c1=O [Compound 38] in terms of Plant response rating, Blackgrass is 15

The reported value for CCCn1c(-c2cccs2)ncc(C(=O)C2=C(O)CCCC2=O)c1=O [Compound 77] in terms of Plant response rating, Blackgrass is 0
